- TGT: REV-ERBα LBD (human; residues 281-614 Δ324-422) (Homo sapiens, UniProt P20393, DEL324-422)
- Construct: 6×Histag-REV-ERBα LBD (human; residues 281-614 Δ324-422); made in house; host or cells: Escherichia coli
- Sequence (P20393 with tags, fused parts or gaps DEL324-422): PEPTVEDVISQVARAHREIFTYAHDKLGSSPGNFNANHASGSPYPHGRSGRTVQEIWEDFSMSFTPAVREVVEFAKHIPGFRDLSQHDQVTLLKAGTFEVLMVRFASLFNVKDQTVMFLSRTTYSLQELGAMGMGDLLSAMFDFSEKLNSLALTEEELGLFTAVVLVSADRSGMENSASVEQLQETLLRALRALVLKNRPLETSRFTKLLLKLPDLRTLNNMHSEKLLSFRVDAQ
- Sequence (Q9Y618 2335-2356 partner limits assumed): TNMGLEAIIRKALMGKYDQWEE
- TEST: TR-FRET corepressor interaction assay (REV-ERBα LBD, FITC-SMRT peptide)
- Assay type: biochemical
- CONDITION_SET: Table 2, read-out: REVERBα agonism (EC50 class, FRET assay)
Recorded EC50, one value per entry.

Known results for compounds:
COMPOUND: Cc1ccccc1-c1ccc2c(c1)c(CC(C)(C)C)cn2CCNS(=O)(=O)C1CC1 [Example 302]
OBSERVED_RESULT: < 500 nM

COMPOUND: CC(C)(C)Cn1cc([C@H](NS(=O)(=O)C2CC2)C(F)(F)F)c2ccc(-c3c(C#N)cccc3C(F)(F)F)cc21 [Example 389]
OBSERVED_RESULT: < 500 nM

Which value of EC50 has been reported for CC(C)Cn1cc(C(C)CNS(=O)(=O)N(C)C)c2ccc(-c3ccccc3)cc21 (stereo not drawn) [Compound 255] in the records? 500 to 3000 nM

Which value of EC50 has been reported for CC(C)(C)Cn1cc([C@H](NS(=O)(=O)C2CCC2)C(F)(F)F)c2cc(F)c(-c3ccccc3C(F)(F)F)cc21 [Example 374] in the records? < 500 nM

Which value of EC50 has been reported for CN(C)S(=O)(=O)NCCc1cn(Cc2cccc(I)c2)c2cc(-c3ccncc3)ccc12 [Example 145] in the records? > 3000 nM

Which value of EC50 has been reported for CCC(C)n1cc(CCNS(=O)(=O)N(C)C)c2ccc(-c3ccncc3)cc21 (stereo not drawn) [Compound 230] in the records? < 500 nM

---

- TGT: REV-ERBα LBD (human; residues 281-614 Δ324-422) (Homo sapiens, UniProt P20393, DEL324-422)
- Construct: 6×Histag-REV-ERBα LBD (human; residues 281-614 Δ324-422); made in house; host or cells: Escherichia coli
- TEST: TR-FRET corepressor interaction assay (REV-ERBα LBD, FITC-SMRT peptide)
- Format: biochemical
- CONDITION_SET: Table 2, read-out: REVERBα agonism (EC50 class, FRET assay)
Recorded EC50, one value per entry.

COMPOUND: CC(C)Cn1cc(CCNS(=O)(=O)N(C)C)c2ccc(-c3ccccc3-c3ccccc3)cc21 [Example 74]
EC50: > 3000 nM

Which value of EC50 has been reported for CC(C)Cn1cc(CCNS(=O)(=O)N(C)C)c2ccc(-c3ccnc(N)c3)cc21 [Compound 21] in the records? 500 to 3000 nM

Which value of EC50 has been reported for CC(C)Cn1cc(CCNS(=O)(=O)N(C)C)c2ccc(-c3ccccc3F)cc21 [Example 56] in the records? 500 to 3000 nM

Which value of EC50 has been reported for CCCc1ccc2c(CCNS(=O)(=O)N(C)C)cn(CC(C)C)c2c1 [Compound 98] in the records? < 500 nM

Which value of EC50 has been reported for CC(C)(C)Cc1cn(CCNS(=O)(=O)C2CC2)c2ccc(-c3c(Cl)cccc3Cl)cc12 [Example 214] in the records? < 500 nM

Which value of EC50 has been reported for CC(C)Cn1cc(CCN(C)S(=O)(=O)N(C)C)c2ccc(Br)cc21 [Compound 123] in the records? 500 to 3000 nM

Which value of EC50 has been reported for CC(C)(C)Cn1cc([C@H](NS(=O)(=O)C2CC2)C(F)(F)F)c2ccc(-c3ncccn3)cc21 [Example 382] in the records? 500 to 3000 nM

Which value of EC50 has been reported for CN(C)S(=O)(=O)N[C@@H](c1cn(CC(C)(C)C)c2cc(-c3ccccc3Cl)c(F)cc12)C(F)(F)F [Example 330] in the records? < 500 nM

Which value of EC50 has been reported for O=S(=O)(N[C@@H](c1cn(CC2CCCC2)c2cc(-c3ccccc3C(F)(F)F)c(F)cc12)C(F)(F)F)C1CC1 [Example 422] in the records? < 500 nM

Which value of EC50 has been reported for CC(C)(C)Cc1cn(CCNS(=O)(=O)C2CC2)c2ccc(-c3cccc4ccccc34)cc12 [Example 209] in the records? < 500 nM

---

- TGT: REV-ERBα LBD (human; residues 281-614 Δ324-422) (Homo sapiens, UniProt P20393, DEL324-422)
- Construct: 6×Histag-REV-ERBα LBD (human; residues 281-614 Δ324-422); made in house; host or cells: Escherichia coli
- TEST: TR-FRET corepressor interaction assay (REV-ERBα LBD, FITC-SMRT peptide)
- Assay type: biochemical
- CONDITION_SET: Table 2, read-out: REVERBα agonism (EC50 class, FRET assay)
RECORDED_METRIC: EC50

MOLECULE: CC(C)Cn1cc(CCNS(=O)(=O)N(C)C)c2ccc(-c3ccncc3)nc21 [Example 203]
EC50: < 500 nM
//
MOLECULE: CN(C)S(=O)(=O)NCCc1cn(C(=O)c2cc(Cl)cc(Cl)c2)c2cc(-c3ccncc3)ccc12 [Example 151]
EC50: > 3000 nM
//
MOLECULE: CC(C)Cn1cc(-c2cccc(NS(=O)(=O)C(C)C)c2)c2ccc(-c3ccccc3)cc21 [Example 83]
EC50: > 3000 nM
//
MOLECULE: CC(C)S(=O)(=O)NCCn1cc(CC(C)(C)C)c2cc(-c3ccc(C(F)(F)F)cc3C(F)(F)F)ccc21 [Example 417]
EC50: < 500 nM
//
MOLECULE: CC(C)Cn1cc(C(C)CNS(=O)(=O)C2CC2)c2ccc(-c3ccccc3)cc21 (centres unmarked) [Compound 256]
EC50: > 3000 nM
//
MOLECULE: CC(C)Cc1cn(CCNS(=O)(=O)C2CC2)c2ncc(-c3ccncc3)cc12 [Example 365]
EC50: < 500 nM
//
MOLECULE: CC(C)Cn1cc(CCCNS(=O)(=O)N(C)C)c2ccc(-c3ccncc3)cc21 [Compound 235]
EC50: > 3000 nM
//
MOLECULE: Cc1cc2c(cc1F)c(CCNS(=O)(=O)N(C)C)cn2CC(C)C [Example 170]
EC50: < 500 nM
//
MOLECULE: CN(C)C(=O)Cn1cc(CCNS(=O)(=O)N(C)C)c2ccc(Br)cc21 [Example 167]
EC50: 500 to 3000 nM
//
MOLECULE: CC(C)Cn1cc(CCNS(=O)(=O)N(C)C)c2ccc(-c3cccc(S(C)(=O)=O)c3)cc21 [Example 60]
EC50: 500 to 3000 nM

Which value of EC50 has been reported for CC(C)Cn1cc(CCNS(=O)(=O)N(C)C)c2ccc(-c3cccc4ccccc34)cc21 [Compound 39] in the records? < 500 nM

Which value of EC50 has been reported for CC(C)(C)Cn1cc(CCNS(=O)(=O)C2CC2)c2ccc(-c3cccc(C(F)(F)F)c3C#N)cc21 [Example 399] in the records? > 3000 nM

Which value of EC50 has been reported for CC(C)(C)Cc1cn(CCNS(=O)(=O)C2CC2)c2ccc(-c3ccc(C(F)(F)F)cc3C(F)(F)F)cc12 [Example 299] in the records? < 500 nM

Which value of EC50 has been reported for CC(C)n1cc(CCNS(=O)(=O)N(C)C)c2ccc(-c3ccncc3)cc21 [Example 129] in the records? 500 to 3000 nM

Which value of EC50 has been reported for Cc1ccc(-c2ccc3c(CCS(=O)(=O)C4CC4)cn(CC(C)(C)C)c3c2)c(C(F)(F)F)c1 [Example 408] in the records? < 500 nM

Which value of EC50 has been reported for Cc1cc2c(CCNS(=O)(=O)N(C)C)cn(CC(C)C)c2cc1C [Example 120] in the records? < 500 nM

Which value of EC50 has been reported for CC(C)Cn1cc(CCNS(=O)(=O)N(C)C)c2ccc(-c3cncnc3)cc21 [Compound 29] in the records? 500 to 3000 nM

Which value of EC50 has been reported for CC(C)Cn1cc(C(C)(C)CNS(=O)(=O)N(C)C)c2ccc(-c3ccncc3)cc21 [Example 177] in the records? 500 to 3000 nM

Which value of EC50 has been reported for CC(C)Cn1cc(CCNS(=O)(=O)N(C)C)c2ccc(OC(C)C)cc21 [Example 118] in the records? 500 to 3000 nM

Which value of EC50 has been reported for Cc1nc2ccccn2c1-c1ccc2c([C@H](NS(=O)(=O)C3CC3)C(F)(F)F)cn(CC(C)(C)C)c2c1 [Example 385] in the records? 500 to 3000 nM

Which value of EC50 has been reported for CC(C)Cn1cc(CCNS(=O)(=O)CC(C)C)c2ccc(-c3ccncc3)cc21 [Compound 12] in the records? < 500 nM

Where do these numbers come from? They come from patent US20230339886A1.
